Every entry's value here was drawn from patent EP4768489A1.

- Assay protocol: in vivo
- Recorded conditions: mouse, po, 10 mg/kg
# half-life listing for each entry below
Outcome measure: half-life (h)

Molecule: COc1cc(O[C@H]2C(C)(C)[C@H](NC(=O)c3ccc(N4CCC(CN5Cc6ccc7c(C8CCC(=O)NC8=O)noc7c6C5)CC4)cc3)C2(C)C)ccc1C#N (some centres unmarked)
Outcome measure: half-life
Unit spec: h
Result value: 15

Molecule: COc1cc(O[C@H]2C(C)(C)[C@H](NC(=O)c3ccc(N4CCC(CN5CCc6ccc7c(C8CCC(=O)NC8=O)noc7c6CC5)CC4)cc3)C2(C)C)ccc1C#N (some centres unmarked)
Outcome measure: half-life
Unit spec: h
Result value: 11

Molecule: COc1cc(O[C@H]2C(C)(C)[C@H](NC(=O)c3ccc(N4CCC(CN5CCc6c(ccc7c(C8CCC(=O)NC8=O)noc67)C5)CC4)cc3)C2(C)C)ccc1C#N (some centres unmarked)
Outcome measure: half-life
Unit spec: h
Result value: 24.9

Molecule: COc1cc(O[C@H]2C(C)(C)[C@H](NC(=O)c3cnc(N4CCC(CN5CCc6c(ccc7c(C8CCC(=O)NC8=O)noc67)C5)CC4)cn3)C2(C)C)ccc1C#N (some centres unmarked)
Outcome measure: half-life
Unit spec: h
Result value: 9.72

Molecule: COc1cc(O[C@H]2C(C)(C)[C@H](NC(=O)c3cnc(N4CCC(CN5CCc6c(ccc7c(C8CCC(=O)NC8=O)noc67)C5)CC4)nc3)C2(C)C)ccc1C#N (some centres unmarked)
Outcome measure: half-life
Unit spec: h
Result value: 11.7

* * *

- Target or test system: AR in MDA-PCA-2B (L702H\T878A) cells (Homo sapiens, UniProt P10275, L702H/T878A)
- Construct: Assay on degradation activity for AR in MDA-PCA-2B (L702H\T878A) cells; endogenous in cells; host or cells: MDA-PCA-2B cells
- Sequence (P10275 whole entry L702H/T878A): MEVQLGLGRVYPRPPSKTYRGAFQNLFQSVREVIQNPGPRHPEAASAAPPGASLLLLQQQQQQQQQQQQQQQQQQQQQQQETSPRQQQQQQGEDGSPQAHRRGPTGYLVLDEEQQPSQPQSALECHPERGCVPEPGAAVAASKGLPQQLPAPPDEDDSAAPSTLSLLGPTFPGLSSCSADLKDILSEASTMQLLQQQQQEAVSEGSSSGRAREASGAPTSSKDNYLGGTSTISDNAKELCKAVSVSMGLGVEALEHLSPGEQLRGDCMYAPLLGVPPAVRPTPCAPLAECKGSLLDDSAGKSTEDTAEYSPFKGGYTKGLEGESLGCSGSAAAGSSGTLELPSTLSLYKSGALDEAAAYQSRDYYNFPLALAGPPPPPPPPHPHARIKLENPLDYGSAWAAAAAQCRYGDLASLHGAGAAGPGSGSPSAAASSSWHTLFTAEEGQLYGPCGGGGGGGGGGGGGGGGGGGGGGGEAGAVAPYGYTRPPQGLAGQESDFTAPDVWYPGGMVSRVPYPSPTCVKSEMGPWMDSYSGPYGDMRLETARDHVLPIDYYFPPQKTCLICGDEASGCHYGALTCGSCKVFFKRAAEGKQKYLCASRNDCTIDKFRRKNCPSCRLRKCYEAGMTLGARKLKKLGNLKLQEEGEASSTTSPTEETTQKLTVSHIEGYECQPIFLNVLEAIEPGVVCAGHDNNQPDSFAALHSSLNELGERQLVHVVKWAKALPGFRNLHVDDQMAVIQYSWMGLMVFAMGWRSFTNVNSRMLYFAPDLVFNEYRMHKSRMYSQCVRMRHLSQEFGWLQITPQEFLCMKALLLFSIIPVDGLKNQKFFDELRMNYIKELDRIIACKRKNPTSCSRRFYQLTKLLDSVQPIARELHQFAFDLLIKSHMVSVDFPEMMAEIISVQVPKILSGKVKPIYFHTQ
- Assay protocol: Assay on degradation activity for AR in MDA-PCA-2B (L702H\T878A) cells (HTRF)
- Format: cell-based
- Recorded conditions: AR degradation, 24 h
Quick reference for DC50 among some compounds

Compound: COc1cc(O[C@H]2C(C)(C)[C@H](NC(=O)c3ccc(N4CCC(CN5CCc6ccc7c(C8CCC(=O)NC8=O)noc7c6C5)CC4)cc3)C2(C)C)ccc1C#N (some centres unmarked) [Compound 9]
DC50: < 500 nM
//
Compound: COc1cc(O[C@H]2C(C)(C)[C@H](NC(=O)c3ccc(N4CCC(CN5CCc6c(ccc7c(C8CCC(=O)NC8=O)noc67)C5)CC4)nn3)C2(C)C)ccc1C#N (some centres unmarked) [Compound 6]
DC50: < 500 nM
//
Compound: COc1cc(O[C@H]2C(C)(C)[C@H](NC(=O)c3ccc(N4CCC(CN5CCc6c(ccc7c(C8CCC(=O)NC8=O)noc67)C5)CC4)nc3)C2(C)C)ccc1C#N (some centres unmarked) [Compound 3]
DC50: < 500 nM
//
Compound: COc1cc(O[C@H]2C(C)(C)[C@H](NC(=O)c3cnc(N4CCC(CN5CCc6c(ccc7c(C8CCC(=O)NC8=O)noc67)C5)CC4)cn3)C2(C)C)ccc1C#N (some centres unmarked) [Compound 5]
DC50: < 500 nM
//
Compound: COc1cc(O[C@H]2C(C)(C)[C@H](NC(=O)c3ccc(N4CCC(CN5CCc6ccc7c(C8CCC(=O)NC8=O)noc7c6CC5)CC4)nc3)C2(C)C)ccc1C#N (some centres unmarked) [Compound 13]
DC50: < 500 nM
//
Compound: COc1cc(O[C@H]2C(C)(C)[C@H](NC(=O)c3ccc(N4CCC(CN5Cc6ccc7c(C8CCC(=O)NC8=O)noc7c6C5)CC4)cc3)C2(C)C)ccc1C#N (some centres unmarked) [Compound 8]
DC50: < 500 nM
//
Compound: COc1cc(O[C@H]2C(C)(C)[C@H](NC(=O)c3ccc(N4CCC(CN5Cc6ccc7c(C8CCC(=O)NC8=O)noc7c6C5)CC4)nc3)C2(C)C)ccc1C#N (some centres unmarked) [Compound 11]
DC50: < 500 nM
//
Compound: COc1cc(O[C@H]2C(C)(C)[C@H](NC(=O)c3ccc(N4CCC(CN5CCc6ccc7c(C8CCC(=O)NC8=O)noc7c6CC5)CC4)cc3)C2(C)C)ccc1C#N (some centres unmarked) [Compound 10]
DC50: < 500 nM
